Data provenance: ChEMBL document CHEMBL4673281

Assign CC50 at 48 h to each entry below.
Measurement description: Cytotoxicity against MDCK cells assessed as cell death incubated for 48 hrs by MTT assay
Type: cell-based, Canis lupus familiaris
Test context: dog
Provide only the numeric value, understood in µM.

COc1ccc([C@H]2CC(C)(O)[C@@H]3CC[C@@H](C)C[C@H]3O2)cc1 (some centres not stated) yielded CC50 at 48 h of 689

Reported CC50 at 48 h of C[C@@H]1CC[C@@H]2[C@@H](C1)O[C@@H](c1ccc(Cl)cc1)CC2(C)O (some centres not stated) : 62

Summary for this molecule, COc1cccc([C@H]2CC(C)(F)[C@@H]3CC[C@@H](C)C[C@H]3O2)c1OC (some centres not stated) : CC50 at 48 h is 180

For this molecule ( COc1cc([C@H]2CC(C)(F)[C@@H]3CC[C@@H](C)C[C@H]3O2)cc(OC)c1OC (some centres not stated) ), measured CC50 at 48 h is 568

Note to self: CC50 at 48 h recorded for C[C@@H]1CC[C@@H]2[C@@H](C1)O[C@@H](c1ccc(F)cc1)CC2(C)O (some centres not stated) was 65

Lab book: CC50 at 48 h of C[C@@H]1CC[C@@H]2[C@@H](C1)O[C@@H](c1ccccc1O)CC2(C)F (some centres not stated) noted as 44

// recorded CC50 at 48 h for C[C@@H]1CC[C@@H]2[C@@H](C1)O[C@@H](c1ccc(Br)cc1)CC2(C)O (some centres not stated) : 132

molecule COc1ccc([C@H]2CC(C)(F)[C@@H]3CC[C@@H](C)C[C@H]3O2)c(OC)c1OC (some centres not stated) , CC50 at 48 h observed: 133

# CC50 at 48 h (molecule: COc1cc([C@H]2CC(C)(O)[C@@H]3CC[C@@H](C)C[C@H]3O2)ccc1O (some centres not stated) ) is 411

The molecule listed as COc1cc([C@H]2CC(C)(O)[C@@H]3CC[C@@H](C)C[C@H]3O2)cc(OC)c1OC (some centres not stated) has a reported CC50 at 48 h of 405

Measured CC50 at 48 h of COc1ccc(OC)c([C@H]2CC(C)(O)[C@@H]3CC[C@@H](C)C[C@H]3O2)c1 (some centres not stated) : 512

Documented CC50 at 48 h of C[C@@H]1CC[C@@H]2[C@@H](C1)O[C@@H](c1ccc(Cl)cc1)CC2(C)F (some centres not stated) : 57

Lab note: measured CC50 at 48 h of COc1ccc([C@H]2CC(C)(F)[C@@H]3CC[C@@H](C)C[C@H]3O2)cc1 (some centres not stated) was 171

Lookup result for COc1ccc(OC)c([C@H]2CC(C)(F)[C@@H]3CC[C@@H](C)C[C@H]3O2)c1 (some centres not stated) ; measured CC50 at 48 h: 37

The molecule identified as COc1ccc([C@H]2CC(C)(O)[C@@H]3CC[C@@H](C)C[C@H]3O2)cc1O (some centres not stated) registered its CC50 at 48 h at 738

Just so you know, measured CC50 at 48 h for C[C@@H]1CC[C@@H]2[C@@H](C1)O[C@@H](c1ccc(O)cc1)CC2(C)O (some centres not stated) came out at 127

// field: CC50 at 48 h; key: COc1cc(OC)c([C@H]2CC(C)(F)[C@@H]3CC[C@@H](C)C[C@H]3O2)c(OC)c1 (some centres not stated) ; value = 851

For record COc1ccc([C@H]2CC(C)(F)[C@@H]3CC[C@@H](C)C[C@H]3O2)cc1OC (some centres not stated) the listed CC50 at 48 h is 20

Per the records, this molecule ( C[C@@H]1CC[C@@H]2[C@@H](C1)O[C@@H](c1ccc(O)cc1)CC2(C)F (some centres not stated) ) has CC50 at 48 h equal to 95
